test.target: T1, Recombinant Human DLL4 (Cat# 1506-D4/CF, R&D Systems) (human, UniProt Q9NR61 27-529)
T1 construct: Bought protein; also called rHuman DLL4; hDLL4
assay.procedure: ELISA, DLL4 coated
measurement.name: fold increased binding affinity against the antibody mutants with heavy chain H:APFF ALTH

Challenge: Bench note: what fold increased binding affinity against the antibody mutants with heavy chain H:APFF ALTH did Fab H:APFF LTH & L:NDH LG (Fab, V domains shown, Fab, kappa light chain) VH: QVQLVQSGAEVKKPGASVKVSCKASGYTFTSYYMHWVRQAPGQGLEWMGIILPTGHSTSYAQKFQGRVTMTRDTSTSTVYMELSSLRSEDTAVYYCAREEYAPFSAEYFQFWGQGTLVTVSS VL: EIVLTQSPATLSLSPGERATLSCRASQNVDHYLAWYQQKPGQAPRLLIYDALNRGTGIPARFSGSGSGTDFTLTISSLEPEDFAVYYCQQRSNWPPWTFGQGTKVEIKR show?
Response given: ~10 fold

Challenge: Another binder to look at: Fab H:APFF LTH & L:NDH (Fab, V domains shown, Fab, kappa light chain) VH: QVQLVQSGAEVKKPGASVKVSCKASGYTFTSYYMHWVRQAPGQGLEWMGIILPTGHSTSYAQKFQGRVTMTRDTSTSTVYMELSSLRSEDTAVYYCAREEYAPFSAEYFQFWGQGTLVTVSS VL: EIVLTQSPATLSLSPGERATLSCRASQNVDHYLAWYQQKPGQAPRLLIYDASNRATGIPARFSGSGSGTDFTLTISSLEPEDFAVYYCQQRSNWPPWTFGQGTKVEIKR
Response given: ~10 fold

Challenge: Another binder to look at: Fab H:APFF VLTH & L:NDH (Fab, V domains shown, Fab, kappa light chain) VH: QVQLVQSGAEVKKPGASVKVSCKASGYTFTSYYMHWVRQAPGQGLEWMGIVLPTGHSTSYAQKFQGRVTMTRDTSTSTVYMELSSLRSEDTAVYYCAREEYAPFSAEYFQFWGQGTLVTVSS VL: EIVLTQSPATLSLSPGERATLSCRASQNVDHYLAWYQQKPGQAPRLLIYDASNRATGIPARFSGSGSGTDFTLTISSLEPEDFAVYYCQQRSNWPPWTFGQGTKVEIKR
Response given: ~10 fold
